# Target desc: T1, FZD3 CRD (Homo sapiens, UniProt Q9NPG1)
# T1 construct: CRD of FZD1, FZD2, FZD3, FZD4, FZD5, FZD6, FZD7, FZD8, FZD9 or FZD10; GPI anchor signal (C); expressed in transfected cells; host or cells: CHO cells, lentiviral pLenti-puro
# T1 sequence (Q9NPG1 23-136 limits assumed): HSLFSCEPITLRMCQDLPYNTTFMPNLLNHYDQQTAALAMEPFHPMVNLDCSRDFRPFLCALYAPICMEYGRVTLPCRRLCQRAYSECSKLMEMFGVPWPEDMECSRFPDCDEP
# Experiment description: Immunofluorescence of anti-FZD5 Fab binding to CHO cells overexpressing Frizzled CRD
# Design: key: −: no binding; +: very weak binder; ++: weak binder; +++: good binder; ++++: very good binder
Measured metric: Immunofluorescence binding, Frizzled CRD overexpressed on CHO cells: FZD3

Fab-2926: anti-FZD5 Fab with antibody variable region Fv-2926; CDR SEQ ID NOs: 35, 36, 65, 103, 141, 173 (antibody, V domains shown) VH: EVQLVESGGGLVQPGGSLRLSCAASGFNIYSSYMHWVRQAPGKGLEWVASIYPSSSSTSYADSVKGRFTISADTSKNTAYLQMNSLRAEDTAVYYCARGGLDYWGQGTLVTVSS VL: DIQMTQSPSSLSASVGDRVTITCRASQSVSSAVAWYQQKPGKAPKLLIYSASSLYSGVPSRFSGSRSGTDFTLTISSLQPEDFATYYCQQWYHGGSLFTFGQGTKVEIK = −
Fab-2900: anti-FZD5 Fab with antibody variable region Fv-2900; CDR SEQ ID NOs: 35, 36, 39, 78, 115, 153 (antibody, V domains shown) VH: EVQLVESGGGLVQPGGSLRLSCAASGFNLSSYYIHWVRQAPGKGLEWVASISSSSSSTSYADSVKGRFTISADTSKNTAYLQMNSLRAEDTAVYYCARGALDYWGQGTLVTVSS VL: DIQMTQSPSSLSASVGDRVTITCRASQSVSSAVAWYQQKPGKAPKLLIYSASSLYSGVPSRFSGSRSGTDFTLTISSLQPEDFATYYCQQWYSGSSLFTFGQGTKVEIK = −
